B1: MFF (parent)
chain: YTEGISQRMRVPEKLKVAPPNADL

- Variants of: B1
- protocol-notes: protein stability index of a GFP-peptide fusion (GPS, HEK-293T) (PSI 1-6); higher = more stable;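 further: lentivirally expressed fusions sorted by FACS into six bins by GFP to DsRed ratio, PSI derived from sequencing read proportions per bin multiplied by bin number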
- experimental-setup: c terminus: a fixed tail appended
metric-name: protein stability index
// response body must contain only the number

Sample answers from the record:
P19M | 2.32
P20K | 3.51
E13T | 2.57

Look at this variant and give its reported protein stability index. R10V
2.49

And what about the variant P12V ?
2.64

And what about the variant V11M ?
3.11

And what about the variant L24A ?
3

And what about the variant K16Y ?
2.81
